assay: Selectivity index, ratio of ED50 for human HepG2 cells to MIC for Escherichia coli K-12 W3110 ATCC 27325; format: toxicity; conditions: read-out: Selectivity Index
ENDPOINT_LABEL: selectivity ratio

SMILES_INPUT	TEST_RESULT
N=C(N)NCCCCNCC(=O)N(CC(=O)N(CC(=O)N(CCCCNC(=N)N)CC(=O)N(CC(=O)N(CC(=O)N(CCCCNC(=N)N)CC(=O)N(CC(=O)N(CC(=O)N(CCCCNC(=N)N)CC(=O)N(CC(=O)N(CC(N)=O)Cc1cccc(F)c1)Cc1cccc(F)c1)Cc1cccc(F)c1)Cc1cccc(F)c1)Cc1cccc(F)c1)Cc1cccc(F)c1)Cc1cccc(F)c1)Cc1cccc(F)c1	2

* * *

test: Selectivity index, ratio of ED50 for human HepG2 cells to MIC for Staphylococcus epidermidis clinical isolate; assay type: toxicity; conditions: read-out: Selectivity Index
Square brackets hold non-standard residues; d marks the D form. Peptide text beside a SMILES is read from it. N(4-F-Bzl)Gly = O=C(O)CNCc1ccc(F)cc1; Gly(N-(CH2)6NH2) = NCCCCCCNCC(=O)O; Nspe = C[C@H](NCC(=O)O)c1ccccc1; NhArg = N=C(N)NCCCCNCC(=O)O; NPentylGly = CCCCCNCC(=O)O; Nphe = O=C(O)CNCc1ccccc1; Nlys = NCCCCNCC(=O)O
ENDPOINT_LABEL: selectivity ratio

MOLECULE	TEST_RESULT
NCCCCCCNCC(=O)N(CC(=O)N(CC(=O)N(CCCCCCN)CC(=O)N(CC(=O)N(CC(=O)N(CCCCCCN)CC(=O)N(CC(=O)N(CC(=O)N(CCCCCCN)CC(=O)N(CC(=O)N(CC(N)=O)Cc1ccccc1)Cc1ccccc1)Cc1ccccc1)Cc1ccccc1)Cc1ccccc1)Cc1ccccc1)Cc1ccccc1)Cc1ccccc1 (H-[Gly(N-(CH2)6NH2)][Nphe][Nphe][Gly(N-(CH2)6NH2)][Nphe][Nphe][Gly(N-(CH2)6NH2)][Nphe][Nphe][Gly(N-(CH2)6NH2)][Nphe][Nphe]-NH2)	17
CCCCCNCC(=O)N(CC(=O)N(CC(=O)N(CCCCNC(=N)N)CC(=O)N(CC(=O)N(CC(=O)N(CCCCC)CC(=O)N(CC(=O)N(CC(=O)N(CCCCNC(=N)N)CC(=O)N(CC(=O)N(CC(N)=O)[C@@H](C)c1ccccc1)[C@@H](C)c1ccccc1)[C@@H](C)c1ccccc1)[C@@H](C)c1ccccc1)[C@@H](C)c1ccccc1)[C@@H](C)c1ccccc1)[C@@H](C)c1ccccc1)[C@@H](C)c1ccccc1 (H-[NPentylGly][Nspe][Nspe][NhArg][Nspe][Nspe][NPentylGly][Nspe][Nspe][NhArg][Nspe][Nspe]-NH2)	4
CCCCCNCC(=O)N(CC(=O)N(CC(=O)N(CCCCN)CC(=O)N(CC(=O)N(CC(=O)N(CCCCN)CC(=O)N(CC(=O)N(CC(=O)N(CCCCN)CC(=O)N(CC(=O)N(CC(N)=O)[C@@H](C)c1ccccc1)[C@@H](C)c1ccccc1)C(C)c1ccccc1)[C@@H](C)c1ccccc1)[C@@H](C)c1ccccc1)[C@@H](C)c1ccccc1)C(C)c1ccccc1)[C@@H](C)c1ccccc1 (single isomer, unassigned)	8
CCCCCN(CC(=O)N(CC(=O)N(CC(=O)N(CCCCN)CC(=O)N(CC(=O)N(CC(N)=O)[C@@H](C)c1ccccc1)[C@@H](C)c1ccccc1)C(C)c1ccccc1)[C@@H](C)c1ccccc1)C(=O)CN(C(=O)CN(C(=O)CN(CCCCN)C(=O)CN(C(=O)CN(C(=O)CNCCCCN)[C@@H](C)c1ccccc1)C(C)c1ccccc1)[C@@H](C)c1ccccc1)C(C)c1ccccc1 (single isomer, unassigned)	11
NCCCCNCC(=O)N(CC(=O)N(CC(=O)N(CCCCN)CC(=O)N(CC(=O)N(CC(=O)N(CCCCN)CC(=O)N(CC(=O)N(CC(=O)N(CCCCN)CC(=O)N(CC(=O)N(CC(N)=O)Cc1ccc(F)cc1)Cc1ccc(F)cc1)Cc1ccc(F)cc1)Cc1ccc(F)cc1)Cc1ccc(F)cc1)Cc1ccc(F)cc1)Cc1ccc(F)cc1)Cc1ccc(F)cc1 (H-[Nlys][N(4-F-Bzl)Gly][N(4-F-Bzl)Gly][Nlys][N(4-F-Bzl)Gly][N(4-F-Bzl)Gly][Nlys][N(4-F-Bzl)Gly][N(4-F-Bzl)Gly][Nlys][N(4-F-Bzl)Gly][N(4-F-Bzl)Gly]-NH2)	30

* * *

experiment: Selectivity index, ratio of ED50 for human HepG2 cells to MIC for Staphylococcus epidermidis clinical isolate; format: toxicity; details: read-out: Selectivity Index
Square brackets hold non-standard residues; d marks the D form. Peptide text beside a SMILES is read from it. N(4-F-Bzl)Gly = O=C(O)CNCc1ccc(F)cc1; Nlys = NCCCCNCC(=O)O

COMPOUND	selectivity ratio
NCCCCNCC(=O)N(CC(=O)N(CC(=O)N(CCCCN)CC(=O)N(CC(=O)N(CC(=O)N(CCCCN)CC(=O)N(CC(=O)N(CC(N)=O)Cc1ccc(F)cc1)Cc1ccc(F)cc1)Cc1ccc(F)cc1)Cc1ccc(F)cc1)Cc1ccc(F)cc1)Cc1ccc(F)cc1 (H-[Nlys][N(4-F-Bzl)Gly][N(4-F-Bzl)Gly][Nlys][N(4-F-Bzl)Gly][N(4-F-Bzl)Gly][Nlys][N(4-F-Bzl)Gly][N(4-F-Bzl)Gly]-NH2)	15
C[C@@H](c1ccccc1)N(CC(N)=O)C(=O)CN(C(=O)CN(CCCCCCN)C(=O)CN(C(=O)CN(C(=O)CNCCCCCCN)[C@@H](C)c1ccccc1)[C@@H](C)c1ccccc1)[C@@H](C)c1ccccc1	4
NCCCCNCC(=O)N(CC(=O)N(CC(=O)N(CCCCN)CC(=O)N(CC(=O)N(CC(=O)N(CCCCN)CC(=O)N(CC(=O)N(CC(N)=O)Cc1ccccc1)Cc1ccccc1)Cc1ccccc1)Cc1ccccc1)Cc1ccccc1)Cc1ccccc1	17

* * *

The following compounds are listed with their measured selectivity ratio values.
test: Selectivity index, ratio of ED50 for human HaCaT cells to MIC for Staphylococcus aureus 3R7089 strain Oxford/ATCC 9144; type: toxicity; conditions: read-out: Selectivity Index
Square brackets hold non-standard residues; d marks the D form. Peptide text beside a SMILES is read from it. Gly(N-(CH2)6NH2) = NCCCCCCNCC(=O)O; Nspe = C[C@H](NCC(=O)O)c1ccccc1; NhArg = N=C(N)NCCCCNCC(=O)O; NPentylGly = CCCCCNCC(=O)O; Nphe = O=C(O)CNCc1ccccc1

COMPOUND	selectivity ratio
CCCCCN(CC(=O)N(CC(=O)N(CC(=O)N(CCCCN)CC(=O)N(CC(=O)N(CC(N)=O)[C@@H](C)c1ccccc1)[C@@H](C)c1ccccc1)C(C)c1ccccc1)[C@@H](C)c1ccccc1)C(=O)CN(C(=O)CN(C(=O)CN(CCCCN)C(=O)CN(C(=O)CN(C(=O)CNCCCCN)[C@@H](C)c1ccccc1)C(C)c1ccccc1)[C@@H](C)c1ccccc1)C(C)c1ccccc1 (single isomer, unassigned)	3
CCCCCNCC(=O)N(CC(=O)N(CC(=O)N(CCCCNC(=N)N)CC(=O)N(CC(=O)N(CC(=O)N(CCCCC)CC(=O)N(CC(=O)N(CC(=O)N(CCCCNC(=N)N)CC(=O)N(CC(=O)N(CC(N)=O)[C@@H](C)c1ccccc1)[C@@H](C)c1ccccc1)[C@@H](C)c1ccccc1)[C@@H](C)c1ccccc1)[C@@H](C)c1ccccc1)[C@@H](C)c1ccccc1)[C@@H](C)c1ccccc1)[C@@H](C)c1ccccc1 (H-[NPentylGly][Nspe][Nspe][NhArg][Nspe][Nspe][NPentylGly][Nspe][Nspe][NhArg][Nspe][Nspe]-NH2)	10
NCCCCCCNCC(=O)N(CC(=O)N(CC(=O)N(CCCCCCN)CC(=O)N(CC(=O)N(CC(N)=O)Cc1ccccc1)Cc1ccccc1)Cc1ccccc1)Cc1ccccc1 (H-[Gly(N-(CH2)6NH2)][Nphe][Nphe][Gly(N-(CH2)6NH2)][Nphe][Nphe]-NH2)	1

* * *

assay: Selectivity index, ratio of ED50 for human HaCaT cells to MIC for Staphylococcus aureus 3R7089 strain Oxford/ATCC 9144; type: toxicity; conditions: read-out: Selectivity Index
Square brackets hold non-standard residues; d marks the D form. Peptide text beside a SMILES is read from it. Nspe = C[C@H](NCC(=O)O)c1ccccc1; NhArg = N=C(N)NCCCCNCC(=O)O; Nlys = NCCCCNCC(=O)O

MOLECULE	selectivity ratio
C[C@@H](c1ccccc1)N(CC(N)=O)C(=O)CN(C(=O)CN(CCCCN)C(=O)CN(C(=O)CN(C(=O)CN(CCCCN)C(=O)CN(C(=O)CN(C(=O)CN(CCCCNC(=N)N)C(=O)CN(C(=O)CN(C(=O)CNCCCCN)[C@@H](C)c1ccccc1)[C@@H](C)c1ccccc1)[C@@H](C)c1ccccc1)[C@@H](C)c1ccccc1)[C@@H](C)c1ccccc1)[C@@H](C)c1ccccc1)[C@@H](C)c1ccccc1 (H-[Nlys][Nspe][Nspe][NhArg][Nspe][Nspe][Nlys][Nspe][Nspe][Nlys][Nspe][Nspe]-NH2)	2

Reference source for all entries: ChEMBL document CHEMBL4261490
